Source of measurements: ChEMBL document CHEMBL4689842

- Tested on: Fibroblast
- method: Multiplex assay against human fibroblast
- Format: toxicity, cell-based
- measurement-parameters: 24 h, 1 µM, compound concentration 1 uM, replicate 1
Mark Met for Population Apoptotic (%) under 60%, Not met if at or over.

Lab note: confirm whether the reported Population Apoptotic (%) for this compound is below 60%, equality not counting. compound: CC1=C(C(=O)Nc2cc3cn[nH]c3cc2F)C(c2ccc(C(F)(F)F)cc2)CC(=O)N1 (centres undefined)
Met

Lab note: confirm whether the reported Population Apoptotic (%) for this compound is below 60%, equality not counting. compound: `CC(C)CC(=O)Nc1[nH]nc2c1CN(C(=O)C1CCN(C)CC1)C2(C)C`
Not met

Lab note: confirm whether the reported Population Apoptotic (%) for this compound is below 60%, equality not counting. compound: `O=c1[nH]c2ccccc2n1C1CCN(Cc2ccc(-c3[nH]c4cc5ncnc5cc4nc3-c3ccccc3)cc2)CC1`
Met

Lab note: confirm whether the reported Population Apoptotic (%) for this compound is below 60%, equality not counting. compound: `Cl.O=C(O)c1cc(-c2ccc(C3CCNCC3)cc2)c2ccc(-c3ccc(C(F)(F)F)cc3)cc2c1`
Not met

Lab note: confirm whether the reported Population Apoptotic (%) for this compound is below 60%, equality not counting. compound: `CC(C)NC(=O)N1CC[C@H](NC2=Nc3cc(F)ccc3N(CC(F)F)c3ccc(Cl)cc32)C1`
Not met

Lab note: confirm whether the reported Population Apoptotic (%) for this compound is below 60%, equality not counting. compound: `O=c1cc(N2CCOCC2)oc2c(-c3cccc4c3sc3ccccc34)cccc12`
Met

Lab note: confirm whether the reported Population Apoptotic (%) for this compound is below 60%, equality not counting. compound: `CC(C)c1noc(N2CCC(COc3ccc(-c4ccc(S(C)(=O)=O)cc4)nc3)CC2)n1`
Met

---

- Tested on: HEK-293T
- method: Multiplex assay against HEK293T
- Type: toxicity, cell-based
- measurement-parameters: human, 24 h, 1 µM, compound concentration 1 uM, replicate 2
property-name: Population Normal (%)
The response must be a number in % with no trailing unit.

Observed Population Normal (%) on HEK-293T for `COc1ccccc1CN[C@H]1C2CCN(CC2)[C@H]1C(c1ccccc1)c1ccccc1` , please.
97

Observed Population Normal (%) on HEK-293T for COc1cc2ncn(-c3cc(OCc4ccccc4C(F)(F)F)c(C(N)=O)s3)c2cc1OC [GW843682X] , please.
95

Observed Population Normal (%) on HEK-293T for `CN1CCN(Cc2ccc(Nc3ncc(Cl)c(Nc4ccccc4S(=O)(=O)N(C)C)n3)cc2)CC1` , please.
96

Observed Population Normal (%) on HEK-293T for `Cc1c[nH]c2nccc(Oc3c(F)cc(Nc4cc(Cl)nc(N)n4)cc3F)c12` , please.
96

Observed Population Normal (%) on HEK-293T for `CCc1ccc(OCc2ccccc2C(=O)Nc2ccc3nc(C)cc(N)c3c2)cc1.Cl` , please.
84

Observed Population Normal (%) on HEK-293T for O=C(c1cc2c(cc1F)OC(c1ccc(F)cc1)(c1ccc(Cl)cc1Cl)O2)N1CCOCC1 (configuration not stated) , please.
96

Observed Population Normal (%) on HEK-293T for `COc1cc(Nc2nccc(-c3cnn4nc(OC)ccc34)n2)cc(C(F)(F)F)c1` , please.
96

Observed Population Normal (%) on HEK-293T for `Cl.O=C(O)c1cc(-c2ccc(C3CCNCC3)cc2)c2ccc(-c3ccc(C(F)(F)F)cc3)cc2c1` , please.
95

Observed Population Normal (%) on HEK-293T for `CC(C)c1noc(N2CCC(COc3ccc(-c4ccc(S(C)(=O)=O)cc4)nc3)CC2)n1` , please.
96

Observed Population Normal (%) on HEK-293T for CCc1nn(CCCN2CCN(c3cccc(Cl)c3)CC2)c(=O)n1CCOc1ccccc1.Cl [NEFAZODONE HYDROCHLORIDE] , please.
95

Observed Population Normal (%) on HEK-293T for `C[C@]12CC[C@@H]3c4ccc(O)cc4CC[C@H]3[C@@H]1CC[C@@H]2O` , please.
96

Observed Population Normal (%) on HEK-293T for `CC(C)NC(=O)N1CC[C@H](NC2=Nc3cc(F)ccc3N(CC(F)F)c3ccc(Cl)cc32)C1` , please.
96

Observed Population Normal (%) on HEK-293T for Cc1ccccc1C(c1ccccc1C)N1C2CCC1CC(O)(c1ccccc1)C2 (configuration not stated) , please.
98

Observed Population Normal (%) on HEK-293T for `Cc1ccc(C)c(Oc2ccncc2C(=O)N2CCN(C3CC3)c3ccccc32)c1` , please.
98

Observed Population Normal (%) on HEK-293T for Cc1cccc(CN2CCN(C(c3ccccc3)c3ccc(Cl)cc3)CC2)c1.Cl.Cl (configuration not stated) , please.
95

Observed Population Normal (%) on HEK-293T for `CC(C)CC(=O)Nc1[nH]nc2c1CN(C(=O)C1CCN(C)CC1)C2(C)C` , please.
96

Observed Population Normal (%) on HEK-293T for `COc1ccc(-c2ccc3ncc4c(c3c2)n(-c2ccc(N3CCNCC3)c(C(F)(F)F)c2)c(=O)n4C)cn1.O=C(O)/C=C\C(=O)O` , please.
91

---

- Tested on: U2OS
- method: Multiplex assay against U2OS
- Type: toxicity, cell-based
- measurement-parameters: human, 24 h, 1 µM, compound concentration 1 uM, replicate 2
property-name: Population Apoptotic (%)
The response must be a number in % with no trailing unit.

Entry under review: `CC(C)CC(=O)Nc1[nH]nc2c1CN(C(=O)C1CCN(C)CC1)C2(C)C` . Reported Population Apoptotic (%)?
50

Entry under review: `Cc1c[nH]c2nccc(Oc3c(F)cc(Nc4cc(Cl)nc(N)n4)cc3F)c12` . Reported Population Apoptotic (%)?
46

Entry under review: `CCc1ccc(OCc2ccccc2C(=O)Nc2ccc3nc(C)cc(N)c3c2)cc1.Cl` . Reported Population Apoptotic (%)?
83

Entry under review: `CC(C)Oc1ccccc1C(=O)Nc1ccccc1C(=O)Nc1cccc(S(=O)(=O)C(F)(F)F)c1` . Reported Population Apoptotic (%)?
33

Entry under review: `C[C@]12CC[C@@H]3c4ccc(O)cc4CC[C@H]3[C@@H]1CC[C@@H]2O` . Reported Population Apoptotic (%)?
50

Entry under review: O=C(c1cc2c(cc1F)OC(c1ccc(F)cc1)(c1ccc(Cl)cc1Cl)O2)N1CCOCC1 (centres undefined) . Reported Population Apoptotic (%)?
33

Entry under review: CC1=C(C(=O)Nc2cc3cn[nH]c3cc2F)C(c2ccc(C(F)(F)F)cc2)CC(=O)N1 (centres undefined) . Reported Population Apoptotic (%)?
42

Entry under review: CCc1nn(CCCN2CCN(c3cccc(Cl)c3)CC2)c(=O)n1CCOc1ccccc1.Cl [NEFAZODONE HYDROCHLORIDE] . Reported Population Apoptotic (%)?
50

Entry under review: `COc1cc(Nc2nccc(-c3cnn4nc(OC)ccc34)n2)cc(C(F)(F)F)c1` . Reported Population Apoptotic (%)?
45

---

- Tested on: U2OS
- method: Multiplex assay against U2OS
- Assay type: toxicity, cell-based
- measurement-parameters: human, 12 h, 10 µM, compound concentration 10 uM, replicate 2
Assign class by Population Hoechst High Intensity Objects (%): not lower than 10% means Satisfied; lower than 10% means Not satisfied.

Textbook exercise: given the entry `O=c1cc(N2CCOCC2)oc2c(-c3cccc4c3sc3ccccc34)cccc12` , state whether its Population Hoechst High Intensity Objects (%) is greater than or equal to 10%.
Satisfied

Textbook exercise: given the entry CCCSc1nc(N[C@@H]2C[C@H]2c2ccc(F)c(F)c2)c2nnn([C@@H]3C[C@H](OCCO)[C@@H](O)[C@H]3O)c2n1 [TICAGRELOR] , state whether its Population Hoechst High Intensity Objects (%) is greater than or equal to 10%.
Satisfied

Textbook exercise: given the entry `Cl.O=C(O)c1cc(-c2ccc(C3CCNCC3)cc2)c2ccc(-c3ccc(C(F)(F)F)cc3)cc2c1` , state whether its Population Hoechst High Intensity Objects (%) is greater than or equal to 10%.
Satisfied

Textbook exercise: given the entry CCc1nn(CCCN2CCN(c3cccc(Cl)c3)CC2)c(=O)n1CCOc1ccccc1.Cl [NEFAZODONE HYDROCHLORIDE] , state whether its Population Hoechst High Intensity Objects (%) is greater than or equal to 10%.
Not satisfied

Textbook exercise: given the entry Cc1ccc2c(c1)c1c(n2CCc2ccc(C)nc2)CCN(C)C1 [LATREPIRDINE] , state whether its Population Hoechst High Intensity Objects (%) is greater than or equal to 10%.
Not satisfied

Textbook exercise: given the entry COc1ccc(-c2ccc3ncc4c(c3c2)n(-c2ccc(N3CCNCC3)c(C(F)(F)F)c2)c(=O)n4C)cn1.O=C(O)/C=C\C(=O)O [BGT-226] , state whether its Population Hoechst High Intensity Objects (%) is greater than or equal to 10%.
Satisfied

Textbook exercise: given the entry COc1ccccc1CN[C@H]1C2CCN(CC2)[C@H]1C(c1ccccc1)c1ccccc1 [CP-96345] , state whether its Population Hoechst High Intensity Objects (%) is greater than or equal to 10%.
Not satisfied

Textbook exercise: given the entry CC(C)CC(=O)Nc1[nH]nc2c1CN(C(=O)C1CCN(C)CC1)C2(C)C [PHA-793887] , state whether its Population Hoechst High Intensity Objects (%) is greater than or equal to 10%.
Satisfied

Textbook exercise: given the entry CN1CCN(Cc2ccc(Nc3ncc(Cl)c(Nc4ccccc4S(=O)(=O)N(C)C)n3)cc2)CC1 [DUBERMATINIB] , state whether its Population Hoechst High Intensity Objects (%) is greater than or equal to 10%.
Not satisfied

Textbook exercise: given the entry `CC(C)Oc1ccccc1C(=O)Nc1ccccc1C(=O)Nc1cccc(S(=O)(=O)C(F)(F)F)c1` , state whether its Population Hoechst High Intensity Objects (%) is greater than or equal to 10%.
Not satisfied

Textbook exercise: given the entry `Cc1ccc(C)c(Oc2ccncc2C(=O)N2CCN(C3CC3)c3ccccc32)c1` , state whether its Population Hoechst High Intensity Objects (%) is greater than or equal to 10%.
Not satisfied

Textbook exercise: given the entry CNC(=O)Nc1ccc2c(c1)[C@@]1(CC2)OC(=O)N(CC(=O)N(Cc2ccc(F)cc2)[C@@H](C)C(F)(F)F)C1=O [A-486] , state whether its Population Hoechst High Intensity Objects (%) is greater than or equal to 10%.
Satisfied

Textbook exercise: given the entry `CCc1ccc(OCc2ccccc2C(=O)Nc2ccc3nc(C)cc(N)c3c2)cc1.Cl` , state whether its Population Hoechst High Intensity Objects (%) is greater than or equal to 10%.
Satisfied
